# Tested on: NCI-H460 lung
# ASSAY: NCI tumour cell line growth inhibition, 48 h
Quick reference for TGI among some molecules

{"MOLECULE": "CCN(CC)c1ccc2c(c1)Oc1nc(N)c(C#N)c(N)c1C2Sc1ccc(SC)cc1 (stereo not given)", "UNIT": "µM", "LIMIT_SIGN": "=", "TGI": 3.69}
{"MOLECULE": "CCC[C@H](N[C@@H]1CCc2cc(F)cc(F)c2C1)C(=O)Nc1cn(C(C)(C)CNCC(C)(C)C)cn1", "UNIT": "µM", "LIMIT_SIGN": "=", "TGI": 53.8}
{"MOLECULE": "CN1C(c2ccccc2)=CC(=O)C(O)=C(c2ccccc2)S1(=O)=O", "UNIT": "µM", "LIMIT_SIGN": ">", "TGI": 100}
{"MOLECULE": "COc1cccc(/C=N\\Nc2ccc([N+](=O)[O-])cn2)c1O", "UNIT": "µM", "LIMIT_SIGN": "=", "TGI": 11}
{"MOLECULE": "COc1ccc(C(c2ccc(C(C)C)cc(=O)c2O)c2c(O)cc3oc(-c4ccccc4)cc(=O)c3c2O)cc1 (stereo not given)", "UNIT": "µM", "LIMIT_SIGN": "=", "TGI": 15.8}
{"MOLECULE": "O=c1cc(Cl)nc[nH]1", "UNIT": "µM", "LIMIT_SIGN": ">", "TGI": 100}
{"MOLECULE": "COC(OC)c1cccc2c1C1(O)CCC3(CC21)OCCCCO3 (stereo not given)", "UNIT": "µM", "LIMIT_SIGN": ">", "TGI": 100}
{"MOLECULE": "CC(=O)Oc1ccc2c(c1)c1c(=O)oc(N(C)C)nc1n2Cc1ccccc1", "UNIT": "µM", "LIMIT_SIGN": ">", "TGI": 100}
{"MOLECULE": "N=C(c1ccccc1)N(O)C1CCCCC1", "UNIT": "µM", "LIMIT_SIGN": ">", "TGI": 100}
{"MOLECULE": "CC(=O)[O-].CC(=O)[O-].O=C(N/N=C/c1cc(Cl)cc(Cl)c1[OH2+])c1ccncc1.[Co+2]", "UNIT": "µM", "LIMIT_SIGN": ">", "TGI": 100}

---

# Test system: OVCAR-5 ovarian
# ASSAY: NCI tumour cell line growth inhibition, 48 h
MEASUREMENT_TYPE: TGI

{"COMPOUND": "Cc1ccccc1C(=O)Oc1ccc(Oc2ccccc2)cc1", "MEASUREMENT_TYPE": "TGI", "ASSAY_RESULT": "> 100 µM"}
{"COMPOUND": "O=C(Oc1ccccc1)c1cc2cc(CCl)ccc2oc1=O", "MEASUREMENT_TYPE": "TGI", "ASSAY_RESULT": "> 100 µM"}
{"COMPOUND": "O=c1[nH]c2ccc(CC(=S)N3CCOCC3)cc2s1", "MEASUREMENT_TYPE": "TGI", "ASSAY_RESULT": "> 100 µM"}
{"COMPOUND": "CN(C)CCNc1ccc([N+](=O)[O-])c2nc3ccccc3c(N)c12", "MEASUREMENT_TYPE": "TGI", "ASSAY_RESULT": "> 10 µM"}
{"COMPOUND": "C=CC1CC12C(=O)C1OC2(C)C2C(=O)c3c(ccc4c3ccc3ccccc34)C(=O)C12 (stereo not given)", "MEASUREMENT_TYPE": "TGI", "ASSAY_RESULT": "> 100 µM"}
{"COMPOUND": "Cn1c(CCC#N)nc2ccc(Br)cc2c1=O", "MEASUREMENT_TYPE": "TGI", "ASSAY_RESULT": "> 100 µM"}
{"COMPOUND": "Brc1ccc([I+]c2ccc(Br)cc2)cc1", "MEASUREMENT_TYPE": "TGI", "ASSAY_RESULT": "7.9 µM"}
{"COMPOUND": "C=C1CC(CCCl)(c2ccccc2)OC1=O (stereo not given)", "MEASUREMENT_TYPE": "TGI", "ASSAY_RESULT": "> 100 µM"}
{"COMPOUND": "CC(=O)O[C@H]1CC[C@]2(C)[C@H]3CC[C@@H]4[C@H]5[C@H](C(C)C)CC[C@]5(C(=O)OCC(CO)(CO)N=C(N)N)CC[C@@]4(C)[C@]3(C)CC[C@H]2C1(C)C", "MEASUREMENT_TYPE": "TGI", "ASSAY_RESULT": "3.09 µM"}
{"COMPOUND": "CC1C(c2ccc3c(c2)OCO3)c2cc3c(cc2OC1N1CCCC1)OCO3 (stereo not given)", "MEASUREMENT_TYPE": "TGI", "ASSAY_RESULT": "> 100 µM"}

---

# Tested on: NCI-H23 lung
# ASSAY: NCI tumour cell line growth inhibition, 48 h

{"COMPOUND": "NC1C/C(=N\\O)c2c(I)sc(I)c21 (stereo unspecified)", "STUDY_TARGET": "NCI-H23 lung", "TGI": "30.2 µM"}
{"COMPOUND": "CC(NS(C)(=O)=O)c1ccccc1 (stereo unspecified)", "STUDY_TARGET": "NCI-H23 lung", "TGI": "> 100 µM"}
{"COMPOUND": "CCCN1C(=O)CCC2=C1CCc1c2ccc(Cl)c1Cl", "STUDY_TARGET": "NCI-H23 lung", "TGI": "> 100 µM"}
{"COMPOUND": "O=C1Nc2ccccc2C1Cc1ccccc1 (stereo unspecified)", "STUDY_TARGET": "NCI-H23 lung", "TGI": "> 100 µM"}
{"COMPOUND": "C=C1CC(CCCl)(c2ccccc2)OC1=O (stereo unspecified)", "STUDY_TARGET": "NCI-H23 lung", "TGI": "> 100 µM"}
{"COMPOUND": "COc1ccc2c(c1)c(C1(c3cn(C)c4ccc(OC)cc34)C(=O)Nc3ccc(F)cc31)cn2C", "STUDY_TARGET": "NCI-H23 lung", "TGI": "> 100 µM"}
{"COMPOUND": "N=C(N)SCCc1cn2ccccc2n1", "STUDY_TARGET": "NCI-H23 lung", "TGI": "> 100 µM"}
{"COMPOUND": "CCC[C@H](N[C@@H]1CCc2cc(F)cc(F)c2C1)C(=O)Nc1cn(C(C)(C)CNCC(C)(C)C)cn1", "STUDY_TARGET": "NCI-H23 lung", "TGI": "> 89.9 µM"}
{"COMPOUND": "Cc1ccccc1C(=O)Oc1ccc(Oc2ccccc2)cc1", "STUDY_TARGET": "NCI-H23 lung", "TGI": "> 100 µM"}
{"COMPOUND": "CS(=O)(=O)CCNCc1ccc(-c2ccc3ncnc(Nc4ccc(OCc5cccc(C(F)(F)F)c5)cc4)c3c2)o1", "STUDY_TARGET": "NCI-H23 lung", "TGI": "15.7 µM"}
{"COMPOUND": "C/C(=N\\Nc1ccc([N+](=O)[O-])cc1[N+](=O)[O-])c1ccc2ccccc2n1", "STUDY_TARGET": "NCI-H23 lung", "TGI": "> 100 µM"}

---

# System: ACHN renal
# ASSAY: NCI tumour cell line growth inhibition, 48 h
Reported values of TGI for individual entries

{"COMPOUND": "C(=C\\c1csnn1)/c1cccnc1", "STUDY_TARGET": "ACHN renal", "TGI": "> 100 µM"}
{"COMPOUND": "O=C1c2cc3ccccc3cc2C2(c3ccc(Cl)cc3)N[C@H]3CCCC[C@@H]3N12 (stereo partly specified)", "STUDY_TARGET": "ACHN renal", "TGI": "38.7 µM"}
{"COMPOUND": "O=C1/C(=C/c2ccccc2Cl)N=C(c2ccccc2)N1Cc1ccco1", "STUDY_TARGET": "ACHN renal", "TGI": "> 100 µM"}
{"COMPOUND": "CC(=O)Oc1ccc2c(c1)c1c(=O)oc(N(C)C)nc1n2Cc1ccccc1", "STUDY_TARGET": "ACHN renal", "TGI": "> 100 µM"}
{"COMPOUND": "CCOP(=O)(/C=C\\n1cnc2c(=O)n(C(C)=O)c(N)nc21)OCC", "STUDY_TARGET": "ACHN renal", "TGI": "> 100 µM"}
{"COMPOUND": "CCCCC(=O)N/N=C/c1cc(I)cc(I)c1O", "STUDY_TARGET": "ACHN renal", "TGI": "13.4 µM"}

---

Let's look at some compounds and their measured TGI.
# Tested on: SK-MEL-28 melanoma
# ASSAY: NCI tumour cell line growth inhibition, 48 h

{"COMPOUND": "O=C(O)CSCC(=O)Nc1ccc2cccc3c2c1CC3", "STUDY_TARGET": "SK-MEL-28 melanoma", "TGI": "> 100 µM"}
{"COMPOUND": "CC(C)C(=O)N[C@@H](C)C(=O)N(Cc1ccc2ccccc2c1)N=O", "STUDY_TARGET": "SK-MEL-28 melanoma", "TGI": "> 100 µM"}
{"COMPOUND": "N=C(c1ccccc1)N(O)C1CCCCC1", "STUDY_TARGET": "SK-MEL-28 melanoma", "TGI": "> 100 µM"}
{"COMPOUND": "O=C(Nc1c(-c2nc3ccccc3[nH]2)sc(=S)n1-c1ccccc1)c1ccccc1", "STUDY_TARGET": "SK-MEL-28 melanoma", "TGI": "> 100 µM"}
{"COMPOUND": "NC(=O)CCC(NCc1c2ccccc2[n+]([O-])c2ccccc12)C(=O)O (stereo unspecified)", "STUDY_TARGET": "SK-MEL-28 melanoma", "TGI": "> 100 µM"}
{"COMPOUND": "COc1ccc2[nH]cc(-c3nc(-c4cn(C)c5ccncc45)cs3)c2c1", "STUDY_TARGET": "SK-MEL-28 melanoma", "TGI": "3.22 µM"}
{"COMPOUND": "CC1(c2ccc(Cl)cc2)CC(c2ccc(Cl)cc2)=C(C#N)C(=C(C#N)C#N)N1 (stereo unspecified)", "STUDY_TARGET": "SK-MEL-28 melanoma", "TGI": "> 100 µM"}
{"COMPOUND": "COC(CCP(=O)(c1ccccc1)c1ccccc1)(C(=O)c1ccccc1)c1ccccc1 (stereo unspecified)", "STUDY_TARGET": "SK-MEL-28 melanoma", "TGI": "19.9 µM"}
{"COMPOUND": "C1COC(NC(C2CC2)C2CC2)=N1", "STUDY_TARGET": "SK-MEL-28 melanoma", "TGI": "> 100 µM"}
{"COMPOUND": "Cn1c(COC(=O)N2CCCCC2)nc2c(N3CCOCC3)nc(-c3ccccc3)nc21", "STUDY_TARGET": "SK-MEL-28 melanoma", "TGI": "2.86 µM"}
{"COMPOUND": "COC(OC)c1cccc2c1C1(O)CCC3(CC21)OCCCCO3 (stereo unspecified)", "STUDY_TARGET": "SK-MEL-28 melanoma", "TGI": "> 100 µM"}

Reference source: PubChem BioAssay (NCI)
